Values were extracted from patent US8969542B2.

Target: DRB4*0101 (DRw53) (Homo sapiens, UniProt P01903+P13762, G164S)
Conditions: read-out: IC50 nM to purified HLA DRB4 *0101; HTL epitopes
quantity measured: IC50 (nM)

>  <sequence code>
LQAIELQLTLETIYN (Human papillomavirus type 16) [SEQ ID 92]

>  <experimental target>
DRB4*0101 (DRw53) (Homo sapiens, UniProt P01903+P13762, G164S)

>  <unit abbrev>
nM

>  <measured number>
2

$$$$

###

Property: Ratio; scope: individual substances
Tested on: CD8+ spleen cells of HLA transgenic mice (HLA-A01/Kb, F1 HLA-A02/KbxBalb/c, HLA-A11/Kb, HLA-A24/Kb)
Experiment: Immunogenicity after HPV DNA construct immunization, direct ex vivo IFNγ ELISPOT
Assay type: in vivo, mouse
Settings: HLA-A02 epitopes, F1 HLA-A02/KbxBalb/c mice, DNA construct ICCG6149; median of mouse pools

>  <substance>
135 (TIHDIILECV; Human papillomavirus type 16) [compound 135]

>  <Ratio>
86.7

$$$$
>  <substance>
136 (KLTNTGLYNL; Human papillomavirus type 18) [compound 136]

>  <Ratio>
2.0

$$$$
>  <substance>
133 (YMLDLQPETT; Human papillomavirus type 16) [compound 133]

>  <Ratio>
1.4

$$$$
>  <substance>
134 (GTLGIVCPI; Human papillomavirus type 16) [compound 134]

>  <Ratio>
1.0

$$$$

###

System: CD8+ spleen cells of HLA transgenic mice (HLA-A01/Kb, F1 HLA-A02/KbxBalb/c, HLA-A11/Kb, HLA-A24/Kb)
Experiment: Immunogenicity after peptide pool/IFA immunization, direct ex vivo IFNγ ELISPOT
Format: in vivo, mouse
Settings: immunization with pool of peptides emulsified in IFA; HLA transgenic mice; response ratio, WT peptide 10 μg/mL, IFNγ ELISPOT
Flag rule - Peptide Pool SFC/10^6 cells Ratio less than 3 flags criterion met; the remaining entries get criterion not met.

>  <substance>
146 (QAEPDTSNY; Human papillomavirus type 31) [compound 146]

>  <cat>
criterion met

$$$$
>  <substance>
149 (YQFAFKDLCI; Human papillomavirus type 45) [compound 149]

>  <cat>
criterion met

$$$$
>  <substance>
147 (LQDVSIACVY; Human papillomavirus type 45) [compound 147]

>  <cat>
criterion met

$$$$
>  <substance>
151 (RTEVYQFAFK; Human papillomavirus type 45) [compound 151]

>  <cat>
criterion met

$$$$
>  <substance>
154 (FYSRIRELRY; Human papilloma virus) [compound 154]

>  <cat>
criterion not met

$$$$
>  <substance>
152 (SVYGTTLEK; Human papillomavirus type 31) [compound 152]

>  <cat>
criterion not met

$$$$
>  <substance>
148 (FAFTDLTIV; Human papillomavirus type 31) [compound 148]

>  <cat>
criterion not met

$$$$
>  <substance>
150 (TLQEIVLHL; Human papillomavirus type 45) [compound 150]

>  <cat>
criterion not met

$$$$
>  <substance>
153 (HYTNWKFIY; Human papilloma virus) [compound 153]

>  <cat>
criterion met

$$$$

###

Target: HLA A0101 (Homo sapiens, UniProt P04439, A114D/A174V/A182V/D101N/D185E/E176A/E190D/L180R/Q94H/R68K/S129P/T187R/V100A/V91M/W191G)
Test: HLA class I competition binding assay using soluble HLA
pIC50: −log10 of the molar value. Where no end group is shown, it is not given here.

>  <sequence code>
QVDYYGLYY [compound 2]

>  <pIC50>
8.57

$$$$
>  <sequence code>
ISDYRHYCY [compound 5]

>  <pIC50>
8.00

$$$$
>  <sequence code>
STDLRDHIDY [compound 3]

>  <pIC50>
6.95

$$$$

###

Target: DRB5*0101 (DR2w2beta-2) (Homo sapiens, UniProt P01903+Q30154)
Assay: biochemical

>  <compound>
CC[C@H](C)[C@H](N)C(=O)N[C@@H](CCCNC(=N)N)C(=O)N[C@H](C(=O)N[C@@H](CC(C)C)C(=O)N[C@@H](CCC(=O)O)C(=O)N[C@@H](CC(=O)O)C(=O)N[C@@H](CC(C)C)C(=O)N[C@@H](CC(C)C)C(=O)N[C@@H](CCSC)C(=O)NCC(=O)N[C@H](C(=O)N[C@@H](CC(C)C)C(=O)NCC(=O)N[C@H](C(=O)N[C@H](C(=O)O)C(C)C)[C@@H](C)CC)[C@@H](C)O)[C@@H](C)O [compound 97]

>  <sign qualifier>
>

>  <IC50 / µM>
20

$$$$
>  <compound>
CC[C@H](C)[C@H](NC(=O)[C@@H](NC(=O)[C@H](CC(C)C)NC(=O)[C@H](CC(=O)O)NC(=O)[C@@H](NC(=O)[C@H](Cc1ccccc1)NC(=O)[C@H](C)NC(=O)[C@H](Cc1ccccc1)NC(=O)[C@H](CC(=O)O)NC(=O)[C@H](CC(C)C)NC(=O)[C@@H](N)C(C)C)[C@@H](C)O)[C@@H](C)O)C(=O)N[C@H](C(=O)N[C@@H](Cc1ccc(O)cc1)C(=O)N[C@@H](CCCNC(=N)N)C(=O)N[C@@H](CC(=O)O)C(=O)O)C(C)C [compound 111]

>  <sign qualifier>
>

>  <IC50 / µM>
20

$$$$
>  <compound>
CC[C@H](C)[C@H](NC(=O)CNC(=O)[C@H](CCC(=O)O)NC(=O)[C@H](Cc1c[nH]cn1)NC(=O)[C@@H](NC(=O)[C@H](Cc1ccc(O)cc1)NC(=O)[C@H](Cc1ccc(O)cc1)NC(=O)[C@H](CC(C)C)NC(=O)CN)C(C)C)C(=O)N[C@@H](CCCNC(=N)N)C(=O)N[C@H](C(=O)N[C@@H](Cc1ccc(O)cc1)C(=O)N[C@@H](Cc1ccccc1)C(=O)N[C@H](C(=O)N[C@@H](CCC(N)=O)C(=O)O)C(C)C)[C@@H](C)O [compound 93]

>  <sign qualifier>
=

>  <IC50 / µM>
1

$$$$
>  <compound>
CC[C@H](C)[C@H](NC(=O)[C@H](Cc1c[nH]cn1)NC(=O)[C@H](C)NC(=O)[C@H](Cc1ccc(O)cc1)NC(=O)[C@H](CC(C)C)NC(=O)[C@@H](NC(=O)[C@H](C)NC(=O)[C@@H]1CCCN1C(=O)[C@H](CCCCN)NC(=O)[C@@H](NC(=O)[C@H](CC(C)C)NC(=O)[C@@H](NC(=O)[C@H](CCCCN)NC(=O)[C@@H](N)Cc1ccccc1)[C@@H](C)O)[C@@H](C)CC)[C@@H](C)O)C(=O)N[C@@H](CCC(N)=O)C(=O)O [compound 115]

>  <sign qualifier>
=

>  <IC50 / µM>
1

$$$$

###

Property: IC50; scope: individual sequences
Target: HLA A0203 (Homo sapiens, UniProt P04439, A173T/D140Y/D185E/D98H/E277Q/G131W/G231S/I119V/I121R/I166T/I218V/L180W/L300P/L318F/N151K/N90K/P208A/P217A/Q86G/Q94H/R138H/R169H/T345S)
Test: HLA class I competition binding assay using soluble HLA
Where no end group is shown, it is not given here.

>  <sequence code>
FIYIPLFVI [compound 52]

>  <unit abbrev>
µM

>  <IC50>
0.047

$$$$
>  <sequence code>
FLFTDLTIV [compound 53]

>  <unit abbrev>
µM

>  <IC50>
0.0035

$$$$
>  <sequence code>
TVYVFCFLL [compound 29]

>  <unit abbrev>
µM

>  <IC50>
0.769

$$$$
>  <sequence code>
TLQEIVLHV [compound 77]

>  <unit abbrev>
µM

>  <IC50>
0.0051

$$$$
>  <sequence code>
KLLEKLLCI [compound 49]

>  <unit abbrev>
µM

>  <IC50>
0.0024

$$$$
>  <sequence code>
YVVWDSIYYI [compound 73]

>  <unit abbrev>
µM

>  <IC50>
0.248

$$$$
>  <sequence code>
KLTNKGICDL [compound 54]

>  <unit abbrev>
µM

>  <IC50>
0.585

$$$$
>  <sequence code>
FVYIPLFLI [compound 8]

>  <unit abbrev>
µM

>  <IC50>
0.063

$$$$
>  <sequence code>
YQFAFKDLCV [compound 76]

>  <unit abbrev>
µM

>  <IC50>
0.0042

$$$$
>  <sequence code>
TLHDIILECV [compound 9]

>  <unit abbrev>
µM

>  <IC50>
0.0019

$$$$

###

Target: HLA A6801 (Homo sapiens, UniProt P04439, A269V/D185E/E176V/E277Q/E87N/F33Y/G231S/I121M/I166T/I218V/L180W/L300P/L318F/N151K/P208A/P217A/Q86R/R169H/T345S)
Test: HLA class I competition binding assay using soluble HLA
pIC50: −log10 of the molar value. Where no end group is shown, it is not given here.

>  <sequence code>
SVYGETLEK [compound 83]

>  <sign qualifier>
=

>  <pIC50>
8.14

$$$$
>  <sequence code>
ATTPIIHLK [compound 58]

>  <sign qualifier>
=

>  <pIC50>
8.60

$$$$
>  <sequence code>
SVICFVNSK [compound 16]

>  <sign qualifier>
=

>  <pIC50>
8.27

$$$$
>  <sequence code>
SVYGTTLER [compound 60]

>  <sign qualifier>
=

>  <pIC50>
8.40

$$$$
>  <sequence code>
VVLLLVRYK [compound 12]

>  <sign qualifier>
=

>  <pIC50>
7.12

$$$$
>  <sequence code>
KSLFGMSLMK [compound 15]

>  <sign qualifier>
=

>  <pIC50>
6.05

$$$$
>  <sequence code>
AVMCRHYKR [compound 78]

>  <sign qualifier>
=

>  <pIC50>
7.54

$$$$
>  <sequence code>
RTEVYQFAFR [compound 82]

>  <sign qualifier>
=

>  <pIC50>
6.36

$$$$
>  <sequence code>
STAAALYWYR [compound 56]

>  <sign qualifier>
=

>  <pIC50>
7.92

$$$$
>  <sequence code>
RQMNMSQWIK [compound 79]

>  <sign qualifier>
=

>  <pIC50>
5.59

$$$$
>  <sequence code>
DSVYGDTLER [compound 37]

>  <sign qualifier>
=

>  <pIC50>
7.36

$$$$
>  <sequence code>
VTTRYPLLR [compound 81]

>  <sign qualifier>
=

>  <pIC50>
5.50

$$$$
>  <sequence code>
FVVYRDSIPK [compound 36]

>  <sign qualifier>
=

>  <pIC50>
6.75

$$$$
>  <sequence code>
KVSEFRWYRY [compound 59]

>  <sign qualifier>
=

>  <pIC50>
6.72

$$$$
>  <sequence code>
AATKYPLLK [compound 17]

>  <sign qualifier>
<

>  <pIC50>
4.70

$$$$
